Measured values drawn from patent US9221814B2 for this set.

In this section we review reported IC50 values for a set of compounds.
- test-target: F1F0-ATPase (Bos taurus)

Observe how each entry below is paired with its result.
| compound | endpoint-label | test-result |
| --- | --- | --- |
| Cc1cc(C(=O)/N=C(/NCc2ccccc2C)Nc2cc(-c3ccc(F)cc3)n[nH]2)no1 | IC50 | < 5 µM |
| Cc1oncc1C(=O)N=C(NCC(C)C)Nc1cc(-c2cc(F)cc(Cl)c2)n[nH]1 | IC50 | < 5 µM |
| Cn1cc(C(=O)/N=C(\Nc2n[nH]c3cc(F)ccc23)NC(C)(C)C)c(C(F)(F)F)n1 | IC50 | 5 to 16 µM |
| CCC(C)N/C(=N/C(=O)c1cnoc1C)Nc1cc(-c2cc(F)cc(F)c2)n[nH]1 (stereo not shown) | IC50 | < 5 µM |
| Cn1cc(C(=O)/N=C(\Nc2cc(F)cc(Cl)c2)Nc2cc(-c3ccc(O)cc3F)n[nH]2)c(C(F)(F)F)n1 | IC50 | < 5 µM |
| CCOC(=O)NC1CCC(N/C(=N/C(=O)c2cn(C)nc2C(F)(F)F)Nc2cc(F)cc(F)c2)CC1 (stereo not shown) | IC50 | > 16 µM |

# ---- query compound ----
Exercise: Requested read-out: IC50. Entry: "Cc1ccc(Cl)cc1N/C(=N/C(=O)c1cn(C)nc1C(F)(F)F)Nc1cc(-c2ccc(O)c(F)c2)n[nH]1"
Key: 5 to 16 µM
